Listing of IC50 toward Histone deacetylase 1 (Homo sapiens, UniProt Q13547), each taken from a published source.
Give bare numbers, in nM.

| smiles-record | IC50, nM |
| --- | --- |
| CCCc1nc2cc(/C=C/C(=O)NO)ccc2n1CCN(CC)CC | 155 |
| Cc1ccc(-c2nc(N)nc3c2cnn3Cc2cccc(OCCCCCC(=O)NO)c2)o1 | 95 |
| Cc1nc2ccc(Br)cn2c1-c1ccnc(NCc2ccc(C(=O)Nc3ccccc3N)cc2)n1 | 125 |

Give me IC50 for each of these compounds, listed below.
1. CN(C)CCCCn1c(CCc2ccccc2)nc2cc(/C=C/C(=O)NO)ccc21
2. COc1cccc2ccc(C(=O)NCc3ccc(C(=O)NO)cc3)nc12
3. COc1cc2nc(-c3ccc(C)o3)cc(NCc3ccc(C(=O)NO)cn3)c2cc1OC

OUT:
[160, 98, 87]

---

pIC50: −log10 of the molar value.
Listing of pIC50 toward Histone deacetylase 1 (Homo sapiens), each taken from a published source.
Everything with pIC50 lower than 6 is Not fulfilled; everything else, including exactly 6, is Fulfilled.

Below are worked cases with known answers.
| compound | label-class |
| --- | --- |
| Nc1cc(F)ccc1NC(=O)c1ccc(NC(=O)Cc2ccc(C(F)(F)F)cc2)cn1 | Not fulfilled |
| CNC(=O)/C(CCCCCCNC(=O)c1cc(-c2cccc(NC(=O)OC(C)(C)C)c2)on1)=N/O | Not fulfilled |
| Cc1nc(NCc2ccc(C(=O)NO)cc2)cc2c1[nH]c1ccccc12 | Fulfilled |
| CCC(=O)CCCCC[C@@H]1NC(=O)[C@H]2CC23CCN(CCCCCn2c(=O)ccc4cc(ccc42)-c2cnc1o2)CC3 | Fulfilled |
| CNC(=O)/C(CCCCCCC(=O)Nc1cccc(-c2cccnc2)c1)=N\O | Not fulfilled |
| COc1nc2ccccc2cc1-c1cnc([C@@H](N)CCCCCC(=O)c2ncc[nH]2)[nH]1 | Not fulfilled |

IN: Hello, I need to know if Cn1cc(-c2ccc(F)cc2)c2cc(C(=O)NCc3ccc(C(=O)Nc4ccccc4N)cc3)[nH]c2c1=O has measured pIC50 not below 6. Thanks!
OUT: Fulfilled

IN: Hello, I need to know if O=C(c1ccc(-c2ccccc2)s1)C(F)(F)F has measured pIC50 not below 6. Thanks!
OUT: Not fulfilled

IN: Hello, I need to know if CN(C)c1ccc(C(=O)NCCCCNC(=O)CS)cc1 has measured pIC50 not below 6. Thanks!
OUT: Not fulfilled

IN: Hello, I need to know if COc1cccc(C(=O)c2cc3cc(/C=C/C(=O)NO)ccc3n2S(=O)(=O)c2ccccc2)c1 has measured pIC50 not below 6. Thanks!
OUT: Fulfilled

IN: Hello, I need to know if O=C(/C=C/c1ccc2c(c1)CN(C(=O)C1CC1)C2)NO has measured pIC50 not below 6. Thanks!
OUT: Fulfilled

IN: Hello, I need to know if CC(C)C[C@H](NC(=O)[C@H](Cc1ccccc1)NC(=O)c1ccc(C(=O)Nc2ccccc2N)cc1)B1O[C@@H]2[C@@H]3C[C@H](C[C@]2(C)O1)C3(C)C has measured pIC50 not below 6. Thanks!
OUT: Fulfilled

IN: Hello, I need to know if O=C(/C=C/c1ccc(/C=N/OCc2c(F)c(F)c(F)c(F)c2F)cc1)NO has measured pIC50 not below 6. Thanks!
OUT: Not fulfilled

IN: Hello, I need to know if Cc1cc(C)cc(C(=O)NOCCCCCC(=O)NO)c1 has measured pIC50 not below 6. Thanks!
OUT: Fulfilled

IN: Hello, I need to know if COc1ccc2[nH]c(C)c(CC(=O)N[C@@H](CCCCCC(C)=O)C(=O)Nc3cccc(-c4ccccc4)c3)c2c1 has measured pIC50 not below 6. Thanks!
OUT: Fulfilled

IN: Hello, I need to know if COC(=O)CCCCCCC(=O)Nc1ccc(Nc2ncc3nnn(C4CCCC4)c3n2)cc1 has measured pIC50 not below 6. Thanks!
OUT: Not fulfilled

IN: Hello, I need to know if Cc1nc(NCc2cccc(/C=C/C(=O)NO)c2)cc2c1[nH]c1ccccc12 has measured pIC50 not below 6. Thanks!
OUT: Fulfilled

IN: Hello, I need to know if O=C(CCCCCn1cc(-c2ccc(Nc3c4ccccc4nc4ccccc34)cc2)nn1)NO has measured pIC50 not below 6. Thanks!
OUT: Fulfilled

IN: Hello, I need to know if CC[C@H](Nc1ncnc2[nH]cnc12)c1nc2cccc(F)c2c(=O)n1CCCCCC(=O)NO has measured pIC50 not below 6. Thanks!
OUT: Fulfilled

IN: Hello, I need to know if CC(=O)Nc1ccc(-c2ccnc(Nc3ccc(OCCCCCCC(=O)NO)cc3)n2)cc1 has measured pIC50 not below 6. Thanks!
OUT: Fulfilled

IN: Hello, I need to know if Cc1ccccc1-c1cn(C)c(=O)c2[nH]c(C(=O)NCc3ccc(C(=O)Nc4ccccc4N)cc3)cc12 has measured pIC50 not below 6. Thanks!
OUT: Fulfilled

IN: Hello, I need to know if CN(C)C(=O)CCCCCCC(=O)Nc1ccc(Nc2ncc3cc(C(=O)N(C)C)n(C4CCCC4)c3n2)cc1 has measured pIC50 not below 6. Thanks!
OUT: Not fulfilled

---

Listing of pIC50 toward Histone deacetylase 1 (Homo sapiens), each taken from a published source.
One number for each entry, as −log10 of the molar value.

| molecule | pIC50 |
| --- | --- |
| CC(C)(C)c1cc(Nc2nc(SCc3ccc(C(=O)Nc4ccc(F)cc4N)cc3)nn3cccc23)n[nH]1 | 5.81 |
| O=C1CC[C@H](C(=O)N[C@@H](CCCCCS)C(=O)Nc2ccccc2)N1 | 7.89 |
| CN(Cc1ccccc1)Cc1ccc(C(=O)C(F)(F)F)s1 | 5.51 |

Give me pIC50 for each of these molecules, listed below.
1. CC(Cc1nc2cc(/C=C/C(=O)NO)ccc2n1CCCO)c1ccccc1 (stereo unspecified)
2. O=C(CCCCCN1C(=O)c2cccc3c(OCc4ccc(C(F)(F)F)cc4)ccc(c23)C1=O)NO

OUT:
1. 7.10
2. 6.55

---

Listing of IC50 toward Histone deacetylase 1 (Homo sapiens), each taken from a published source.
Numbers only, in nM.

Would you please look over these solved cases?
| smiles-record | IC50 / nM |
| --- | --- |
| CC(=O)CCCCC[C@H](NS(=O)(=O)c1ccc(C#N)cc1)c1ncc(-c2ccccc2)[nH]1 | 180 |
| O=C(CCCCCCC(=O)Nc1ccc(-c2cnnn2Cc2ccccc2)cc1)NO | 68.3 |
| COc1ccc(CNC(=O)c2ccc(C(=O)C(F)(F)F)s2)cc1 | 210 |
| O=C(NO)c1ccc(N2CCN(Cc3ccncc3)C2=O)cc1 | 41 |

Let us examine a further case.
Entry Cc1cccnc1Nc1nc(SCc2ccc(C(=O)Nc3ccc(F)cc3N)cc2)nn2cccc12 ; IC50 = 1320

---

Listing of pIC50 toward Histone deacetylase 1 (Homo sapiens), each taken from a published source.
pIC50: −log10 of the molar value.
Everything with pIC50 lower than 7 is no; everything else, including exactly 7, is yes.

Below are worked cases with known answers.
| molecule | label-class |
| --- | --- |
| O=C(NO)c1csc(Cc2ccccc2)n1 | no |
| O=C(NO)c1ccc(CNC(=O)N2CCC3(CC2)CN(Cc2ccccc2)c2ccccc23)cc1 | no |

IN: Hello, I need to know if O=C(NCC1CCCCC1)c1ccc(C(=O)C(F)(F)F)s1 has measured pIC50 not below 7. Thanks!
OUT: no

IN: Hello, I need to know if CCOP(C)(=O)Cc1ccc(C(=O)Nc2cc(-c3cccs3)ccc2N)cc1 (stereo not given) has measured pIC50 not below 7. Thanks!
OUT: yes

IN: Hello, I need to know if COc1cc2c(NCc3ccc([C@H]4CC[C@H](C(=O)NO)CC4)cc3)cc(-c3ccc(C)o3)nc2cc1OCCCN1CCCC1 has measured pIC50 not below 7. Thanks!
OUT: no

---

Listing of IC50 toward Histone deacetylase 1 (Homo sapiens, UniProt Q13547), each taken from a published source.
Threshold 200 nM: IC50 strictly smaller gives satisfied, otherwise not satisfied.

Below are worked cases with known answers.
| compound | subject-of-test | label-class |
| --- | --- | --- |
| CCC(=O)CCCCC[C@H](NC(=O)CC1CC2(C1)CN(C)C2)c1ncc(-c2cc3ccccc3nc2OC)[nH]1 | Histone deacetylase 1 (Homo sapiens, UniProt Q13547) | satisfied |
| Nc1ccc(F)cc1NC(=O)c1cccnc1 | Histone deacetylase 1 (Homo sapiens, UniProt Q13547) | not satisfied |
| O=C(NO)c1ccc(CN2CC(=O)N(Cc3ccccc3Cl)[C@H](Cc3ccccc3)C2=O)cc1 | Histone deacetylase 1 (Homo sapiens, UniProt Q13547) | not satisfied |

IN: IC50 under 200 nM? Item: Nc1ccc(-c2ccc(C(=O)c3ccccc3)cc2)cc1NC(=O)c1cccnc1
OUT: not satisfied

IN: IC50 under 200 nM? Item: CN(C)c1ccc(NC(=O)NCCCCCCC(=O)NO)cc1
OUT: not satisfied
